These data points were gathered from patent US10844077B2.

Test system: MYO3A, MYO3B
ASSAY COMMENT: KINATIV assay
Type: cell-based
SETUP CONDITIONS: 1 μM, 90 minutes, BCWM.1 cells
Description: The cells were harvested and lysed. The lysates were directly labeled with an ATP-biotin probe. Bound kinases were identified and quantitated by ACTIVX as described in Patricelli et al., Biochemistry, 2007, 46(2): 350-358. The compounds were tested in duplicates against duplicate or quadruplicate control samples.
PROPERTY NAME: % change of MS signal compared to control sample (%)
Give bare numbers, in %.

| COMPOUND | READING |
| --- | --- |
| C=CC(=O)N1CCC(Cn2ccc(Nc3ncc(C(=O)Nc4c(C)cccc4Cl)s3)n2)C1 (stereo not shown) | 12.9 |

// batch mode: one % change of MS signal compared to control sample value per listed entry
1. C=CC(=O)N1CCCCC(Nc2nccc(Nc3ncc(C(=O)Nc4c(C)cccc4C)s3)n2)C1 (stereo not shown)
2. C=CC(=O)N1CC[C@@H](Nc2nccc(Nc3ncc(C(=O)Nc4c(C)cccc4C)s3)n2)C1

Result:
1: 17.2; 2: 15.9

Q: Dear colleague, I am looking for the recorded % change of MS signal compared to control sample of the following compound: C=CC(=O)N1CCC(CNc2nccc(Nc3ncc(C(=O)Nc4c(C)cccc4C)s3)n2)C1 (racemic)
Result: 23.1

---

Each entry below carries its measured % change of MS signal compared to control sample, system: PRPK (Homo sapiens (Human), UniProt Q96S44).
Sequence (Q96S44 whole entry, looked up): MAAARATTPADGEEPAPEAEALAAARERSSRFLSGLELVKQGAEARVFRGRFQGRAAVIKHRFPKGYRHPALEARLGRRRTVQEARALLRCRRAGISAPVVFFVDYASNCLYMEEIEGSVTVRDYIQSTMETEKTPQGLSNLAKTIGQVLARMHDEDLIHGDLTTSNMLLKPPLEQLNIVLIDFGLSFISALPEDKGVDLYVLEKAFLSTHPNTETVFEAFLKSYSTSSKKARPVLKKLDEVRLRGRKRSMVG
Numbers only, in %.

| COMPOUND | MEASUREMENT UNIT | READING |
| --- | --- | --- |
| C=CC(=O)N1CCCCC(Nc2nccc(Nc3ncc(C(=O)Nc4c(C)cccc4C)s3)n2)C1 (stereo not shown) | % | −3.8 |
| C=CC(=O)N1CC[C@@H](Nc2nccc(Nc3ncc(C(=O)Nc4c(C)cccc4C)s3)n2)C1 | % | −13.6 |
| C=CC(=O)N1CCC(CNc2nccc(Nc3ncc(C(=O)Nc4c(C)cccc4C)s3)n2)C1 (racemic) | % | 3.7 |

Q: Dear colleague, I am looking for the recorded % change of MS signal compared to control sample of the following compound: C=CC(=O)N1CCC(Cn2ccc(Nc3ncc(C(=O)Nc4c(C)cccc4Cl)s3)n2)C1 (stereo not shown)
Result: −5.2

---

SYSTEM UNDER TEST: MST1 (Homo sapiens (Human))
Sequence (Q13043 whole entry): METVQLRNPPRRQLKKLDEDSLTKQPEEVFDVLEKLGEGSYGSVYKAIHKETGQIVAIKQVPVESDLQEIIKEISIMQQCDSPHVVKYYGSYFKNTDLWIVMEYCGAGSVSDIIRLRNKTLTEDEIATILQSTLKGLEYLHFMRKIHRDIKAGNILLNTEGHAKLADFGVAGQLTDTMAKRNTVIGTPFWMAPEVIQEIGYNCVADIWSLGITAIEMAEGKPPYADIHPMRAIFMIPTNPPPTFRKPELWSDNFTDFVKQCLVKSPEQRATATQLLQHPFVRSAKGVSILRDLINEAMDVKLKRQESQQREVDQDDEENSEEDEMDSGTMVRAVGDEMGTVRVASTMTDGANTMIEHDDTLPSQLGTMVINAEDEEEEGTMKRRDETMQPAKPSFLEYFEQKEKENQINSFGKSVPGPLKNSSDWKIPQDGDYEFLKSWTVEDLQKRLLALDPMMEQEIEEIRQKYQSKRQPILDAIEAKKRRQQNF
ASSAY COMMENT: KINATIV assay
Format: cell-based
SETUP CONDITIONS: 1 μM, 90 minutes, BCWM.1 cells
PROPERTY NAME: % change of MS signal compared to control sample (%)
Numbers only, in %.

Reference set, count: 3
| MOLECULE | SYSTEM UNDER TEST | MEASUREMENT UNIT | READING |
| --- | --- | --- | --- |
| C=CC(=O)N1CCC(Cn2ccc(Nc3ncc(C(=O)Nc4c(C)cccc4Cl)s3)n2)C1 (stereo not shown) | MST1 (Homo sapiens (Human)) | % | 13.2 |
| C=CC(=O)N1CC[C@@H](Nc2nccc(Nc3ncc(C(=O)Nc4c(C)cccc4C)s3)n2)C1 | MST1 (Homo sapiens (Human)) | % | 7.0 |
| C=CC(=O)N1CCCCC(Nc2nccc(Nc3ncc(C(=O)Nc4c(C)cccc4C)s3)n2)C1 (stereo not shown) | MST1 (Homo sapiens (Human)) | % | 3.0 |

Here is the next item to consider.
Q: Short answer please: % change of MS signal compared to control sample, MST1 (Homo sapiens (Human)), entry C=CC(=O)N1CCC(CNc2nccc(Nc3ncc(C(=O)Nc4c(C)cccc4C)s3)n2)C1 (racemic)
Result: 2.4

---

Assignment: determine reported % change of MS signal compared to control sample for the given compounds.
SYSTEM UNDER TEST: UniProtKB Q9UBE8
Sequence (Q9UBE8 whole entry): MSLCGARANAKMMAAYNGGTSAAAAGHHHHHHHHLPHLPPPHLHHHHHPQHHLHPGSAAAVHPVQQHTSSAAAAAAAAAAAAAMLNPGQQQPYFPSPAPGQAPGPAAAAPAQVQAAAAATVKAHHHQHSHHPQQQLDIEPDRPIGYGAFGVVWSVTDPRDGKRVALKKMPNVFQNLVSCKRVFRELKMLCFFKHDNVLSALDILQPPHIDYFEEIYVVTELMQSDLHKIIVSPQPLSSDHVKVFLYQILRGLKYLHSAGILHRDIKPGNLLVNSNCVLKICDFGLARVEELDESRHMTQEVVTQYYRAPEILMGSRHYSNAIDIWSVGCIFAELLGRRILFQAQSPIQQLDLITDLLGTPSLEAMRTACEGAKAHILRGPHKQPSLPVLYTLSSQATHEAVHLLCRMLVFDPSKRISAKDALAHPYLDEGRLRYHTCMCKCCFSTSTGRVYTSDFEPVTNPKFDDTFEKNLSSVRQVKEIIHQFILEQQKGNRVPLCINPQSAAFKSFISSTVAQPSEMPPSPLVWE
ASSAY COMMENT: KINATIV assay
Assay type: cell-based
SETUP CONDITIONS: 1 μM, 90 minutes, BCWM.1 cells
Give bare numbers, in %.

Reference set, count: 3
| COMPOUND | SYSTEM UNDER TEST | READING |
| --- | --- | --- |
| C=CC(=O)N1CCC(Cn2ccc(Nc3ncc(C(=O)Nc4c(C)cccc4Cl)s3)n2)C1 (stereo not shown) | UniProtKB Q9UBE8 | 3.7 |
| C=CC(=O)N1CC[C@@H](Nc2nccc(Nc3ncc(C(=O)Nc4c(C)cccc4C)s3)n2)C1 | UniProtKB Q9UBE8 | 6.7 |
| C=CC(=O)N1CCCCC(Nc2nccc(Nc3ncc(C(=O)Nc4c(C)cccc4C)s3)n2)C1 (stereo not shown) | UniProtKB Q9UBE8 | 4.2 |

Q: Dear colleague, I am looking for the recorded % change of MS signal compared to control sample of the following compound: C=CC(=O)N1CCC(CNc2nccc(Nc3ncc(C(=O)Nc4c(C)cccc4C)s3)n2)C1 (racemic)
Result: 6.1

---

Assignment: determine reported % change of MS signal compared to control sample for the given compounds.
System: Wnk1, Wnk2
ASSAY COMMENT: KINATIV assay
Format: cell-based
SETUP CONDITIONS: 1 μM, 90 minutes, BCWM.1 cells

| COMPOUND | READING |
| --- | --- |
| C=CC(=O)N1CCCCC(Nc2nccc(Nc3ncc(C(=O)Nc4c(C)cccc4C)s3)n2)C1 (stereo not shown) | −8.6% |
| C=CC(=O)N1CCC(CNc2nccc(Nc3ncc(C(=O)Nc4c(C)cccc4C)s3)n2)C1 (racemic) | −16.4% |
| C=CC(=O)N1CC[C@@H](Nc2nccc(Nc3ncc(C(=O)Nc4c(C)cccc4C)s3)n2)C1 | 7.8% |

Here is the next item to consider.
Q: Dear colleague, I am looking for the recorded % change of MS signal compared to control sample of the following compound: C=CC(=O)N1CCC(Cn2ccc(Nc3ncc(C(=O)Nc4c(C)cccc4Cl)s3)n2)C1 (stereo not shown)
Result: −3.8%

---

Assignment: determine reported % change of MS signal compared to control sample for the given compounds.
SYSTEM UNDER TEST: MST2 (Homo sapiens (Human))
Sequence (Q13188 whole entry): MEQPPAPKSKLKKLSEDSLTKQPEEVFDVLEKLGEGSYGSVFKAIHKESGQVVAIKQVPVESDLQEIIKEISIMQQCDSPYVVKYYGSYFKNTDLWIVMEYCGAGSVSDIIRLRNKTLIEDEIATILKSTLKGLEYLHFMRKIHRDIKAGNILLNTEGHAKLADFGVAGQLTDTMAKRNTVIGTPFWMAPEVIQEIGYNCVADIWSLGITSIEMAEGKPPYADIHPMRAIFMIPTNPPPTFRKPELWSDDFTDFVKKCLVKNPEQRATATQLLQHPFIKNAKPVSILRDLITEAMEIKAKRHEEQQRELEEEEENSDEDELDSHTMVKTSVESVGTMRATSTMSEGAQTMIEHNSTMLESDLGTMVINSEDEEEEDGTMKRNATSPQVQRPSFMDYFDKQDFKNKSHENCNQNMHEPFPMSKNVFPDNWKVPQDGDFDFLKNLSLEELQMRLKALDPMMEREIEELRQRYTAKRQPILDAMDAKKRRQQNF
ASSAY COMMENT: KINATIV assay
Format: cell-based
SETUP CONDITIONS: 1 μM, 90 minutes, BCWM.1 cells
One number for each entry, in %.

Reference set, count: 2
| COMPOUND | MEASUREMENT UNIT | READING |
| --- | --- | --- |
| C=CC(=O)N1CCCCC(Nc2nccc(Nc3ncc(C(=O)Nc4c(C)cccc4C)s3)n2)C1 (stereo not shown) | % | 6.5 |
| C=CC(=O)N1CCC(Cn2ccc(Nc3ncc(C(=O)Nc4c(C)cccc4Cl)s3)n2)C1 (stereo not shown) | % | 14.7 |

// batch mode: one % change of MS signal compared to control sample value per listed entry
1. C=CC(=O)N1CC[C@@H](Nc2nccc(Nc3ncc(C(=O)Nc4c(C)cccc4C)s3)n2)C1
2. C=CC(=O)N1CCC(CNc2nccc(Nc3ncc(C(=O)Nc4c(C)cccc4C)s3)n2)C1 (racemic)

Result:
1: 12.3; 2: 4.3

---

Assignment: determine reported % change of MS signal compared to control sample for the given compounds.
SYSTEM UNDER TEST: ULK1 (Homo sapiens (Human), UniProt O75385)
Sequence (O75385 whole entry): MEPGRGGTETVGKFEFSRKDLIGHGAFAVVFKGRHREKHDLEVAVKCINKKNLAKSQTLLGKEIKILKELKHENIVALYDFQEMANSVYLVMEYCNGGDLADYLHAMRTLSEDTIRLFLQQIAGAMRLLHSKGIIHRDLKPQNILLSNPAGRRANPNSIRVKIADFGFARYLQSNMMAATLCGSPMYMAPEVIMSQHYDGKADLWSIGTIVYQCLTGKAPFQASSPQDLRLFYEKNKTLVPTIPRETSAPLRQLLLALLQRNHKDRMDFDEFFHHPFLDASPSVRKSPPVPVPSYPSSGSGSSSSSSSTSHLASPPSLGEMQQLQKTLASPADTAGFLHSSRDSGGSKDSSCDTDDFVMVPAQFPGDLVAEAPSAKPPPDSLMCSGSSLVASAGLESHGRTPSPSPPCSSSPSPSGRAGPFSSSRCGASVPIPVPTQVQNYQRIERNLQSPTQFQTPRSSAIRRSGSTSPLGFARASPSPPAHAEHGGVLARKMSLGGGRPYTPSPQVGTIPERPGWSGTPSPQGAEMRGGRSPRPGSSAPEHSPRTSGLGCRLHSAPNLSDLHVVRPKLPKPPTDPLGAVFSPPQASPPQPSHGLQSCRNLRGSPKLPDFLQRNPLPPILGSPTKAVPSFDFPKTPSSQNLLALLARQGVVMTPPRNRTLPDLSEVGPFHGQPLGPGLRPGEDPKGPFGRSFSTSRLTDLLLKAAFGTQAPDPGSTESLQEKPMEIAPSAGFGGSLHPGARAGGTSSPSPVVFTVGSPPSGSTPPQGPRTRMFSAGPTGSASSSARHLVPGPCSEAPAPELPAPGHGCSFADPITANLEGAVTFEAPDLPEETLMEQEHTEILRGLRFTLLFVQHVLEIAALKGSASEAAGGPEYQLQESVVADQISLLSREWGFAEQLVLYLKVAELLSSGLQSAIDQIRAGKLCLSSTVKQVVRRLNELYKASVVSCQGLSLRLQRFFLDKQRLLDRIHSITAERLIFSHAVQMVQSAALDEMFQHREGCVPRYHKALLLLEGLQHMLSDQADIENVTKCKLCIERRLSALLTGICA
ASSAY COMMENT: KINATIV assay
Format: cell-based
SETUP CONDITIONS: 1 μM, 90 minutes, BCWM.1 cells
One number for each entry, in %.

Reference set, count: 3
| COMPOUND | MEASUREMENT UNIT | READING |
| --- | --- | --- |
| C=CC(=O)N1CC[C@@H](Nc2nccc(Nc3ncc(C(=O)Nc4c(C)cccc4C)s3)n2)C1 | % | 16.2 |
| C=CC(=O)N1CCC(CNc2nccc(Nc3ncc(C(=O)Nc4c(C)cccc4C)s3)n2)C1 (racemic) | % | 16.1 |
| C=CC(=O)N1CCC(Cn2ccc(Nc3ncc(C(=O)Nc4c(C)cccc4Cl)s3)n2)C1 (stereo not shown) | % | 19.7 |

Here is the next item to consider.
Q: Dear colleague, I am looking for the recorded % change of MS signal compared to control sample of the following compound: C=CC(=O)N1CCCCC(Nc2nccc(Nc3ncc(C(=O)Nc4c(C)cccc4C)s3)n2)C1 (stereo not shown)
Result: 19.3

---

SYSTEM UNDER TEST: NEK8 (Homo sapiens (Human), UniProt Q86SG6)
Sequence (Q86SG6 whole entry): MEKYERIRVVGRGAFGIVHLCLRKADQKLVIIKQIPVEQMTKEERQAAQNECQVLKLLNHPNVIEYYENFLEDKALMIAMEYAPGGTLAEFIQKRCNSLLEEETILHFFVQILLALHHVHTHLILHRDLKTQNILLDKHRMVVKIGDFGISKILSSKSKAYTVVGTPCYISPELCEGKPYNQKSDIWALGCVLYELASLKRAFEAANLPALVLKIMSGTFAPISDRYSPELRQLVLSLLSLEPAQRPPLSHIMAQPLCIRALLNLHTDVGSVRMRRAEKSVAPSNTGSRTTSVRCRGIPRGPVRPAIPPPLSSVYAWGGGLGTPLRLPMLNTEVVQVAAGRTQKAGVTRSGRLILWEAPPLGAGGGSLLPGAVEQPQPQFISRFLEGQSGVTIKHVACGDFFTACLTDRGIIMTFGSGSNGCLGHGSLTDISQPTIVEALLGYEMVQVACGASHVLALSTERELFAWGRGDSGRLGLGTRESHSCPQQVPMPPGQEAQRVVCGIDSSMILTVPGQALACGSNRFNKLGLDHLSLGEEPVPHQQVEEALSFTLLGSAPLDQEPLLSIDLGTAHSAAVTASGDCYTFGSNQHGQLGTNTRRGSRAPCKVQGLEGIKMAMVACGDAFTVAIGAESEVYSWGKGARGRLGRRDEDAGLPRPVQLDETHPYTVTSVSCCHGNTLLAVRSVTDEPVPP
ASSAY COMMENT: KINATIV assay
Format: cell-based
SETUP CONDITIONS: 1 μM, 90 minutes, BCWM.1 cells
PROPERTY NAME: % change of MS signal compared to control sample (%)
Answers are plain numbers, in %.

Reference set, count: 3
| MOLECULE | MEASUREMENT UNIT | READING |
| --- | --- | --- |
| C=CC(=O)N1CCC(CNc2nccc(Nc3ncc(C(=O)Nc4c(C)cccc4C)s3)n2)C1 (racemic) | % | 13.1 |
| C=CC(=O)N1CCCCC(Nc2nccc(Nc3ncc(C(=O)Nc4c(C)cccc4C)s3)n2)C1 (stereo not shown) | % | 12.2 |
| C=CC(=O)N1CC[C@@H](Nc2nccc(Nc3ncc(C(=O)Nc4c(C)cccc4C)s3)n2)C1 | % | 14.6 |

Here is the next item to consider.
Q: Dear colleague, I am looking for the recorded % change of MS signal compared to control sample of the following molecule: C=CC(=O)N1CCC(Cn2ccc(Nc3ncc(C(=O)Nc4c(C)cccc4Cl)s3)n2)C1 (stereo not shown)
Result: 6.5
